System: HIV-1 double-mutant strain K103N+Y181C (RES056)
Protocol text: microbe, parasite or virus in culture
Assay type: cell-based
Measurement parameters: selectivity index, ratio CC50/EC50, RES056
Procedure: All the target compounds were first evaluated for their antiviral activity against HIV-1 wild-type (WT) strain (IIIB) and the double-mutant strain K103N+Y181C (RES056) in the MT-4 cell line, using the MTT method. The antiviral potential and cytotoxic effects of the target compounds were assessed using the MTT assay in MT-4 cells, following established protocols. […]

{"columns": ["Compound", "Experimental target", "SI RES056"],
 "data": [
  ["Cc1cc(C#N)cc(C)c1Oc1nc(Nc2ccc(NC(=O)[C@H](Cc3cn(C(=O)OC(C)(C)C)cn3)NC(=O)OC(C)(C)C)cc2)nc2ccsc12", "HIV-1 double-mutant strain K103N+Y181C (RES056)", "<1"],
  ["CNCC(=O)Nc1ccc(Nc2nc(Oc3c(C)cc(C#N)cc3C)c3sccc3n2)cc1", "HIV-1 double-mutant strain K103N+Y181C (RES056)", "<1"],
  ["Cc1cc(C#N)cc(C)c1Oc1nc(Nc2ccc(NC(=O)C3CCCN3)cc2)nc2ccsc12 (stereo not shown)", "HIV-1 double-mutant strain K103N+Y181C (RES056)", 4],
  ["Cc1cc(C#N)cc(C)c1Oc1nc(Nc2ccc(NC(=O)[C@@H](N)Cc3c[nH]cn3)cc2)nc2ccsc12", "HIV-1 double-mutant strain K103N+Y181C (RES056)", "≤5"],
  ["Cc1cc(C#N)cc(C)c1Oc1nc(Nc2ccc(NC(=O)C(N)Cc3c[nH]c4ccccc34)cc2)nc2ccsc12 (stereo not shown)", "HIV-1 double-mutant strain K103N+Y181C (RES056)", "<1"],
  ["Cc1cc(C#N)cc(C)c1Oc1nc(Nc2ccc(NC(=O)[C@@H](N)C(C)C)cc2)nc2ccsc12", "HIV-1 double-mutant strain K103N+Y181C (RES056)", "≤1"],
  ["Cc1cc(C#N)cc(C)c1Oc1nc(Nc2ccc(NC(=O)C3CC(O)CN3)cc2)nc2ccsc12 (stereo not shown)", "HIV-1 double-mutant strain K103N+Y181C (RES056)", "<1"],
  ["Cc1cc(C#N)cc(C)c1Oc1nc(Nc2ccc(NC(=O)[C@H](N)CC(C)C)cc2)nc2ccsc12", "HIV-1 double-mutant strain K103N+Y181C (RES056)", 4],
  ["Cc1cc(C#N)cc(C)c1Oc1nc(Nc2ccc(NC(=O)C3CCCN3C(=O)OC(C)(C)C)cc2)nc2ccsc12 (stereo not shown)", "HIV-1 double-mutant strain K103N+Y181C (RES056)", "<1"],
  ["Cc1cc(C#N)cc(C)c1Oc1nc(Nc2ccc(NC(=O)[C@@H](N)Cc3ccccc3)cc2)nc2ccsc12", "HIV-1 double-mutant strain K103N+Y181C (RES056)", 3]
]}
